# experimental system: HLA-A*02:01 (Homo sapiens, UniProt P04439, D140Y/D185E/D98H/E176V/E277Q/G131W/G231S/I119V/I121R/I166T/I218V/L300P/L318F/N151K/N90K/P208A/P217A/Q86G/Q94H/R138H/R169H/T345S)
# protocol notes: MHC binding assay: UV-ligand exchange with beta2m ELISA (exchange yield)
# settings: binding to HLA-A*02:01, β2m ELISA
# Description: Candidate peptides for T cell based therapies according to the present invention were further tested for their MHC binding capacity (affinity). The individual peptide-MHC complexes were produced by UV-ligand exchange, where a UV-sensitive peptide is cleaved upon UV-irradiation, and exchanged with the peptide of interest as analyzed. Only peptide candidates that can effectively bind and stabilize the peptide-receptive MHC molecules prevent dissociation of the MHC complexes. […]
measure: Peptide exchange (MHC class I binding score, peptide exchange yield)

# example entries with known answers
316 (ILLERLWYV; listed as Homo sapiens) [compound 316] ... “+++” (≥50 = +++)
372 (TMLLNIPLV; listed as Homo sapiens) [compound 372] ... “++” (≥20% = ++)
150 (RLWEEGEELEL; listed as Homo sapiens) [compound 150] ... “+++” (≥50 = +++)
258 (ELAERVPAI; listed as Homo sapiens) [compound 258] ... “++” (≥20% = ++)
81 (FLFSQLQYL; listed as Homo sapiens) [compound 81] ... “++” (≥20% = ++)
241 (SLVEVNPAYSV; listed as Homo sapiens) [compound 241] ... “+++” (≥50 = +++)
142 (FLFATPVFI; listed as Homo sapiens) [compound 142] ... “+++” (≥50 = +++)
254 (TLLAFIMEL; listed as Homo sapiens) [compound 254] ... “+++” (≥50 = +++)

Here's the next entry for you.
Prompt: // query Peptide exchange (MHC class I binding score, peptide exchange yield) value for entry 500 (SLMEDQVLQL; listed as Homo sapiens) [compound 500]
Response: “+++” (≥50 = +++)

====

# experimental system: HLA-A*02:01 (Homo sapiens, UniProt P04439, D140Y/D185E/D98H/E176V/E277Q/G131W/G231S/I119V/I121R/I166T/I218V/L300P/L318F/N151K/N90K/P208A/P217A/Q86G/Q94H/R138H/R169H/T345S)
# protocol notes: MHC binding assay: UV-ligand exchange with beta2m ELISA (exchange yield)
# settings: binding to HLA-A*02:01, β2m ELISA
measure: Peptide exchange (MHC class I binding score, peptide exchange yield)

# example entries with known answers
48 (ALAELYEDEV; listed as Homo sapiens) [compound 48] ... “+++” (≥50 = +++)
251 (ALYTGFSILV; listed as Homo sapiens) [compound 251] ... “++” (≥20% = ++)
237 (ALLEASGTLLL; listed as Homo sapiens) [compound 237] ... “++++” (≥75% = ++++)
567 (SLLPLDDIVRV; listed as Homo sapiens) [compound 567] ... “+++” (≥50 = +++)
621 (VLMDRLPSLL; listed as Homo sapiens) [compound 621] ... “++++” (≥75% = ++++)
233 (VLSETLYEL; listed as Homo sapiens) [compound 233] ... “++” (≥20% = ++)
38 (FLLEDDIHVS; listed as Homo sapiens) [compound 38] ... “+++” (≥50 = +++)
401 (ILLDDTGLAYI; listed as Homo sapiens) [compound 401] ... “+++” (≥50 = +++)

Prompt: // query Peptide exchange (MHC class I binding score, peptide exchange yield) value for entry 3 (SLASKLTTL; listed as Homo sapiens) [compound 3]
Response: “++++” (≥75% = ++++)

====

# experimental system: HLA-A*02:01 (Homo sapiens, UniProt P04439, D140Y/D185E/D98H/E176V/E277Q/G131W/G231S/I119V/I121R/I166T/I218V/L300P/L318F/N151K/N90K/P208A/P217A/Q86G/Q94H/R138H/R169H/T345S)
# protocol notes: MHC binding assay: UV-ligand exchange with beta2m ELISA (exchange yield)
# settings: binding to HLA-A*02:01, β2m ELISA
measure: Peptide exchange (MHC class I binding score, peptide exchange yield)

# example entries with known answers
270 (LLLDEEGTFSL; listed as Homo sapiens) [compound 270] ... “++” (≥20% = ++)
175 (YLFENISQL; listed as Homo sapiens) [compound 175] ... “+++” (≥50 = +++)
352 (SLLELLHIYV; listed as Homo sapiens) [compound 352] ... “+++” (≥50 = +++)
44 (ILDPISSGFLL; listed as Homo sapiens) [compound 44] ... “++” (≥20% = ++)

Here's the next entry for you.
Prompt: // query Peptide exchange (MHC class I binding score, peptide exchange yield) value for entry 164 (ALLPQPKNLTV; listed as Homo sapiens) [compound 164]
Response: “+++” (≥50 = +++)

====

# experimental system: HLA-A*02:01 (Homo sapiens, UniProt P04439, D140Y/D185E/D98H/E176V/E277Q/G131W/G231S/I119V/I121R/I166T/I218V/L300P/L318F/N151K/N90K/P208A/P217A/Q86G/Q94H/R138H/R169H/T345S)
# protocol notes: MHC binding assay: UV-ligand exchange with beta2m ELISA (exchange yield)
# settings: binding to HLA-A*02:01, β2m ELISA
measure: Peptide exchange (MHC class I binding score, peptide exchange yield)

# example entries with known answers
234 (ALMEDTGRQML; listed as Homo sapiens) [compound 234] ... “++” (≥20% = ++)
512 (SLSEIVPCL; listed as Homo sapiens) [compound 512] ... “+++” (≥50 = +++)
198 (KTINKVPTV; listed as Homo sapiens) [compound 198] ... “+++” (≥50 = +++)
85 (KMSELRVTL; listed as Homo sapiens) [compound 85] ... “+++” (≥50 = +++)

Prompt: // query Peptide exchange (MHC class I binding score, peptide exchange yield) value for entry 144 (YIMEPSIFNTL; listed as Homo sapiens) [compound 144]
Response: “+++” (≥50 = +++)

Prompt: Try this substance too: 61 (FLQGYQLHL; listed as Homo sapiens) [compound 61]
Response: “++++” (≥75% = ++++)

====

# experimental system: HLA-A*02:01 (Homo sapiens, UniProt P04439, D140Y/D185E/D98H/E176V/E277Q/G131W/G231S/I119V/I121R/I166T/I218V/L300P/L318F/N151K/N90K/P208A/P217A/Q86G/Q94H/R138H/R169H/T345S)
# protocol notes: MHC binding assay: UV-ligand exchange with beta2m ELISA (exchange yield)
# settings: binding to HLA-A*02:01, β2m ELISA
measure: Peptide exchange (MHC class I binding score, peptide exchange yield)

223 (ALLENIALYL; listed as Homo sapiens) [compound 223] ... “+++” (≥50 = +++)
306 (ALVNVQIPL; listed as Homo sapiens) [compound 306] ... “+++” (≥50 = +++)
477 (ALLPASGQIAL; listed as Homo sapiens) [compound 477] ... “+++” (≥50 = +++)
545 (LLADLLHNV; listed as Homo sapiens) [compound 545] ... “+++” (≥50 = +++)
192 (KMLDGASFTL; listed as Homo sapiens) [compound 192] ... “+++” (≥50 = +++)

Prompt: // query Peptide exchange (MHC class I binding score, peptide exchange yield) value for entry 99 (ALVSKGLATV; listed as Homo sapiens) [compound 99]
Response: “++” (≥20% = ++)

Prompt: Try this substance too: 227 (ALMNTLLYL; listed as Homo sapiens) [compound 227]
Response: “++” (≥20% = ++)

Prompt: Try this substance too: 580 (LLMENAERV; listed as Homo sapiens) [compound 580]
Response: “++” (≥20% = ++)

====

# experimental system: HLA-A*02:01 (Homo sapiens, UniProt P04439, D140Y/D185E/D98H/E176V/E277Q/G131W/G231S/I119V/I121R/I166T/I218V/L300P/L318F/N151K/N90K/P208A/P217A/Q86G/Q94H/R138H/R169H/T345S)
# protocol notes: MHC binding assay: UV-ligand exchange with beta2m ELISA (exchange yield)
# settings: binding to HLA-A*02:01, β2m ELISA
measure: Peptide exchange (MHC class I binding score, peptide exchange yield)

602 (YLLEQIKLIEV; listed as Homo sapiens) [compound 602] ... “++++” (≥75% = ++++)
453 (KLLEATSAV; listed as Homo sapiens) [compound 453] ... “++” (≥20% = ++)
4 (GIMEHITKI; listed as Homo sapiens) [compound 4] ... “++++” (≥75% = ++++)
269 (RVLEVGALQAV; listed as Homo sapiens) [compound 269] ... “++” (≥20% = ++)
